Target: T1, recombinant human EphA5 (rhEphA5) antigen (human, UniProt P54756 25-573)
T1 construct: also called human EphA5 (R and D systems, Cat. No. 3036-A5); recombinant EphA5
T1 sequence (P54756 25-573 limits assumed): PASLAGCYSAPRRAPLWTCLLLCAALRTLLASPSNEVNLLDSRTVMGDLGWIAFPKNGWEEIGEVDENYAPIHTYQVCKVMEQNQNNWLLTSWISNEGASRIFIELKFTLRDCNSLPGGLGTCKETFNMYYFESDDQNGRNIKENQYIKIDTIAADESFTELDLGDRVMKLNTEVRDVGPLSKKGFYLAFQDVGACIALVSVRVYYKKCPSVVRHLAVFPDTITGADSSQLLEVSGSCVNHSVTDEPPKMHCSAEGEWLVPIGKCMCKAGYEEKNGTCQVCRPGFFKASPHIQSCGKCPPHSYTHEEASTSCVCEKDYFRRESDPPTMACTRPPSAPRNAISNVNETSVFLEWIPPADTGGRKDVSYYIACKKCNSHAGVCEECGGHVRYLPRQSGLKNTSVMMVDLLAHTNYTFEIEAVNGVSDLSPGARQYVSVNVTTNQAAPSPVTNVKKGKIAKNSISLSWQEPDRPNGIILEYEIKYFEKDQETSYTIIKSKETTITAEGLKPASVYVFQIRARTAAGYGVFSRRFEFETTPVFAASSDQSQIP
Experiment: SPR single-cycle kinetics (Biacore T200), IgG from HEK supernatant captured on anti-human IgG CM5 chip, rhEphA5 as analyte, 1:1 fit
Design: reference not given here
quantity: Relative KD
Kindly provide the number alone.

>  <binder>
VH4/VK5 humanized 11C12 antibody (antibody, human IgG1, kappa, V domains shown, Human IgG1/kappa; tested as HEK293 EBNA supernatant; also called H4K5) VH: EVQLVESGGGLVQPGGSLKLSCAASGFTFSTFGIHWVRQAPGKGLEWVAYISGASTTIYYADTVKGRFTISRDNSKNTLYLQMNSLRAEDTAVYYCARYGTSFPYGLDYWGQGTLVTVSS VL: DIVMTQSPDSLAVSLGERATINCKSSQSVDYDGDSYMNWYQQKPGKAPKLLIYGASNLESGIPDRFSGSGSGTDFTLTISRLEPEDAAVYYCQQSNEDPFTFGQGTKLEIKR

>  <Relative KD>
0.75

$$$$

Query: Endpoint output: Relative KD of VH6/VK2 humanized 11C12 antibody (antibody, human IgG1, kappa, V domains shown, Human IgG1/kappa; tested as HEK293 EBNA supernatant; also called H6K2) VH: EVQLVESGGGLVQPGGSLKLSCAASGFTFSTFGIHWVRQAPGKGLEWVASISGASTTIYYADSVKGRFTISRDNSKNTLYLQMNSLRAEDTAVYYCARYGTSFPYGLDYWGQGTLVTVSS VL: DIVMTQSPDSLAVSLGERATINCKASQSVDYDGDSYMNWYQQKPGKAPKLLIYGASNLESGIPDRFSGSGSGTDFTLTISRLEPEDAASYYCQQSNEDPFTFGQGTKLEIKR . Value?
Response: 7.14
